assay: phase 1 first-in-human trial, multiple ascending dose (MAD) PK; format: in vivo; settings: human, plasma, oral, 100 mg, healthy volunteers, fasted; 100 mg QD; Day 7; read-out: Cmax (geometric mean)
Reported endpoint: Cmax

For the compound shown here, Brc1cccc(-c2cc(-c3ccc4c(c3)OCO4)n[nH]2)c1 [anle138b] , give the reported Cmax.
~70.9 ng/mL

====

Assay: phase 1 first-in-human trial, food effect study (FES) PK
Format: in vivo
Settings: human, plasma, po, 150 mg, healthy volunteers; single oral 150 mg; fasted; read-out: Tmax (range)
Protocol: Anle138b was studied in a single-centre, double-blind, randomised, placebo-controlled single ascending dose (SAD) and multiple ascending dose (MAD) study in healthy subjects. […] Data from all randomized individuals were evaluated. […] where μ=[…] is the intercept and β is the slope from the linear model. […] The estimate of β together with its 90% CI (βI, βu) was used to quantify the degree of non-proportionality. […]
Reported endpoint: Tmax

For the molecule shown here, Brc1cccc(-c2cc(-c3ccc4c(c3)OCO4)n[nH]2)c1 [anle138b] , give the reported Tmax.
1 to 2 h
